# subject-of-test: T1, wild‐type SERF2 (human, UniProt P84101-1 1-59)
# T1 sequence: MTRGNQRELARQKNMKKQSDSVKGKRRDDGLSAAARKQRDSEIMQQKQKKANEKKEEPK
# test-details: MST
Ends that are not written are not given here.
observable: Kd (µM)
Give a bare numeral; the unit µM is implied.

Reported Kd, binder YEMPSEEGYQDY (also: 5(6)-carboxyfluorescein label, site not given here) [Asyn top peptide (YEMPSEEGYQDY) of alpha‐synuclein, carboxyfluorescein-labeled] : ____
3
